Target: human full-length glucocorticoid receptor (Homo sapiens, UniProt P04150)
Construct: recombinantly expressed human full-length glucocorticoid receptor; purchased PanVera Co., Madison, Wis; P2816
Sequence (P04150 1-777): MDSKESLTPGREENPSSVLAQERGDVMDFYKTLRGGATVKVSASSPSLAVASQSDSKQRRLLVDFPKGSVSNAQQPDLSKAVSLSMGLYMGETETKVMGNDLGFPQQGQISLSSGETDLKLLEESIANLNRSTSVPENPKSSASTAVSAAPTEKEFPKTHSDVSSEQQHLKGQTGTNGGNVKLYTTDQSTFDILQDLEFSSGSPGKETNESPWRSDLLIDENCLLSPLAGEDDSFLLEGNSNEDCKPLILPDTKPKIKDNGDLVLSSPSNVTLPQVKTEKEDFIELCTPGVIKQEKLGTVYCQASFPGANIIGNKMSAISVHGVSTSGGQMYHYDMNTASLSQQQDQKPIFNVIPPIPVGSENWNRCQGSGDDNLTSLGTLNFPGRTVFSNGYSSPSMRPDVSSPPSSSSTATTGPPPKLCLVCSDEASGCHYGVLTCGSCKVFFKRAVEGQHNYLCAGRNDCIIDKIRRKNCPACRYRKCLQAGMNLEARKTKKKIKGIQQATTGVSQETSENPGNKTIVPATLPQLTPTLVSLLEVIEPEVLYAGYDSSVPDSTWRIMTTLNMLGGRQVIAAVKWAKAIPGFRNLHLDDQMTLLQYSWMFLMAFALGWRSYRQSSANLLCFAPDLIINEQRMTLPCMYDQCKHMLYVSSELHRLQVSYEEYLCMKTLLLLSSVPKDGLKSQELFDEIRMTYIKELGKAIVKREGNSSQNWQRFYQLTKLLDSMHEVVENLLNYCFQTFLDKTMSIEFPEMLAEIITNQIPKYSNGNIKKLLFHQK
Experiment: GR binding Assay II (fluorescence polarization competitor assay)
Conditions: given where AP-1 EC50 is greater than 1 uM and/or maximal inhibition is less than 20%; read-out: GR (Ki, nM) (measured in GR binding Assay II)
TEST_READOUT: Ki (nM)
# number only, unit nM dropped from output

Record excerpt, results attached:
[
  {
    "SMILES_STRING": "CNC(=O)c1cnc(NC(=O)C(C)(C)[C@H]2c3ccc(C)nc3Oc3nc(-c4ccc(C(=O)N(C)C)cc4)ccc32)s1",
    "Ki (nM)": 423
  },
  {
    "SMILES_STRING": "Cc1ccc2c(n1)Oc1nc(-c3ccc(C(=O)N(C)C)cc3)ccc1[C@H]2C(C)(C)C(=O)Nc1nnc(C(=O)NC2CC2)s1",
    "Ki (nM)": 11.6
  }
]

Attention now turns to another entry.
Q: Query the reported Ki for human full-length glucocorticoid receptor (Homo sapiens, UniProt P04150); item: Cc1ccc2c(n1)Oc1nc(-c3ccc(OC4CCCC4)cc3)ccc1[C@H]2C(C)(C)C(=O)Nc1nncs1
Result: 13.5

Cited source for all entries: patent US8304539B2
